- System: K562
- protocol-notes: Growth assay (Cell Titer Glo)
- Assay type: cell-based
- measurement-context: Homo sapiens; K562, hematopoietic
reported-property: IC50 (nM)

• COC(=O)[C@H]1Cc2c([nH]c3ccccc23)[C@H](c2ccc(Cl)cc2Cl)N1C(=O)CCl = 1250

---

Each entry below carries its reported IC50.
- Tested on: KM12
- protocol-notes: Growth assay (Cell Titer Glo)
- Assay type: cell-based
- measurement-context: Homo sapiens; KM12, colon
- Protocol: All human tumor cell lines were obtained from ATCC and grown under standard cell culture conditions at 37° C. in a humidified atmosphere with 5% CO2. […] Cells were harvested at 70 to 90% confluence with trypsin/EDTA and used immediately Cell count and viability was determined by Trypan blue staining followed by hemocytometry. […] Tissue culture microtiter 96-well plates were seeded with cells at a density of 5,000 cells/well. […] Luminescence was measured by a Perkin Elmer Victor® multi-label plate reader.^6 […]
reported-property: IC50 (nM)

- COC(=O)[C@H]1Cc2c([nH]c3ccccc23)[C@H](c2ccc(Cl)cc2Cl)N1C(=O)CCl: 630
- COC(=O)[C@H]1Cc2c([nH]c3ccccc23)[C@H](c2cc(OC)ccc2OC)N1C(=O)CCl: 1370

The origin of these recorded values is patent US9169247B2.
